# tested on: DLG1_1, Q12959
# assay remarks: holdup assay
# Set-up: key: below the threshold = too weak to quantify, mostly under pKd 3.1 to 4
# experimental parameters: plain residues with an end cap or a label only (N-terminal biotin on a linker: ttds)
Give pKd for every item shown.
Numbers only.

Here are 2 binders together with their reported answers.
DLDEEEDTHL [PODXL, O00592]; 3.63
SHSSKGETAV [FZD7, O75084]; 4.72

Quick batch: pKd for everything below.
1. SGGKRKETLV [NET1, Q7Z628]
2. PSRDRKETSI [RALBP1, Q15311]
3. PPRQRSETQV [HPV82-E6, Q9IR59]
4. FVETQHQTQV [FAT3, Q8TDW7]

1. 5.09
2. 3.79
3. 4.75
4. 4.32

The origin of these recorded values is paper PMC9482650.
